Data origin, for the record: ChEMBL document CHEMBL4382217

- Tested on: NCI-H1975
- Test Description: Antiproliferative activity against human NCI-H1975 cells harboring EGFR T790M/L858R double mutant after 72 hrs by MTS assay
- Format: functional, cell-based
- Measurement Parameters: Homo sapiens, NCI-H1975, 72 h
Endpoint Label: GI50 (nM)

Reference set (4 entries):
> print(dat)
                                smiles.code  result.number
1  C=CC(=O)Nc1cc(Nc2nccc(-c3cn(C)c4cccnc34)n2)c(OC)cc1N(C)CCN(C)C            6.8
2  C=CC(=O)Nc1cc(Nc2nccc(-c3noc4ccccc34)n2)c(OC(F)F)cc1N1CCC[C@H]1CN(C)C            285
3  C=CC(=O)Nc1cc(Nc2nccc(-c3noc4ccccc34)n2)c(OC)cc1N(C)CCN(C)C            7.3
4  C=CC(=O)Nc1cc(Nc2nccc(-c3noc4ccccc34)n2)c(OC(F)F)cc1N1CCN(C)CC1             49

A: C=CC(=O)Nc1cc(Nc2nccc(-c3cn(C)c4cccnc34)n2)c(OC(F)F)cc1N(C)CCN(C)C
B: C=CC(=O)Nc1cc(Nc2nccc(-c3nn(C)c4ccsc34)n2)c(OC(F)F)cc1N1CCN(C)CC1
C: C=CC(=O)Nc1cc(Nc2nccc(-c3nn(C)c4ccsc34)n2)c(OC)cc1N(C)CCN(C)C
Put these in order: smallest GI50 first, largest last. # answer = labels listed in requested order
A, C, B
(A: 6.7 nM, C: 10.7 nM, B: 296 nM)

###

- Experimental System: Epidermal growth factor receptor (Homo sapiens, UniProt P00533)
- Sequence (P00533 whole entry): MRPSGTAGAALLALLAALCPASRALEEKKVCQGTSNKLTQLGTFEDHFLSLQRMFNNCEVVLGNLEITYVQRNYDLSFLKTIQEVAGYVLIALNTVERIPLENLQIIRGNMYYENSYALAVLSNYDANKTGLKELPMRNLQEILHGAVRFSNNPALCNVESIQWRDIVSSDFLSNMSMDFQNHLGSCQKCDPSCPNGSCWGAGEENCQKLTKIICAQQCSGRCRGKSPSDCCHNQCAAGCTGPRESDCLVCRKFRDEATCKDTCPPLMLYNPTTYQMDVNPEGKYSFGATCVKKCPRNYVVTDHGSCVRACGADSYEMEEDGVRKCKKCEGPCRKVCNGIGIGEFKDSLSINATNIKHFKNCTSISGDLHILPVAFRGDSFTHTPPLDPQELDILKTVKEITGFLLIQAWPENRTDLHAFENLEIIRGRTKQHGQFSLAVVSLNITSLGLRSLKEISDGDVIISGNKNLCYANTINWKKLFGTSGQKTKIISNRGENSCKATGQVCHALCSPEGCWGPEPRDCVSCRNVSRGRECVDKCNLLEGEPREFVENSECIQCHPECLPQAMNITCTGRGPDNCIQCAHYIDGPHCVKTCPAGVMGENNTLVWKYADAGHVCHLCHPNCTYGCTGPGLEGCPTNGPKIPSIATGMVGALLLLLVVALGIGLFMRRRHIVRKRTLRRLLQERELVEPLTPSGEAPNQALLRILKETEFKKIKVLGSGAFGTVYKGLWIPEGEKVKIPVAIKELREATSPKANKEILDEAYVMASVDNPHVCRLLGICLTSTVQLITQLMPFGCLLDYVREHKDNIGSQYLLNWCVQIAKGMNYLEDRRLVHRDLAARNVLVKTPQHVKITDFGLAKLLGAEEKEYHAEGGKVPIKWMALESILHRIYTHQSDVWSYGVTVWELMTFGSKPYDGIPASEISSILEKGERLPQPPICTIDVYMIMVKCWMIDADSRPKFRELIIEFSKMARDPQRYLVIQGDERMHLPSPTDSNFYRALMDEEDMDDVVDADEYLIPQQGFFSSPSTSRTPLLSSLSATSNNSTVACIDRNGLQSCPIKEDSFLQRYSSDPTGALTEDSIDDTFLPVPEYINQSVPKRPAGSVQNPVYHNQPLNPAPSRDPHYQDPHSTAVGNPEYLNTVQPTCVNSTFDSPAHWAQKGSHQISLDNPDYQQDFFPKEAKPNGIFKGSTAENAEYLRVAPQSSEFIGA
- Test Description: Inhibition of recombinant human N-terminal GST-tagged EGFR (696-end residues) expressed in baculovirus expression system using Srctide as substrate by fluorescence assay
Endpoint Label: pIC50
Interpret pIC50 as the negative base-10 log of the concentration measured in mol/L.

Sample answers from the record:
> print(dat)
                                smiles.code                       experimental.system  endpoint.label  result.number
1  C=CC(=O)Nc1cc(Nc2nccc(-c3cn(C)c4cccnc34)n2)c(OC)cc1N(C)CCNC  Epidermal growth factor receptor (Homo sapiens, UniProt P00533)           pIC50           3.56
2  C=CC(=O)Nc1cc(Nc2nccc(-c3cn(C)c4cccnc34)n2)c(OC)cc1N(C)CCN(C)C  Epidermal growth factor receptor (Homo sapiens, UniProt P00533)           pIC50           4.20

Which pIC50 value belongs to "C=CC(=O)Nc1cc(Nc2nccc(-c3cn(C)c4cccnc34)n2)c(OC)cc1NCCN(C)C" ?
4.11

###

- Test Description: Half life in po dosed mouse
- Format: ADME, organism-based
- Measurement Parameters: in vivo
Endpoint Label: half-life (min)
# value in min; strip the unit string

Record request: half-life value, item "C=CC(=O)Nc1cc(Nc2nccc(-c3cn(C)c4ccccc34)n2)c(OC)cc1N(C)CCN(C)C"
180

###

The following compounds are listed with their measured IC50 values.
- Test system: Calu-3
- Test Description: Antiproliferative activity against human Calu3 cells harboring WT EGFR after 72 hrs by MTS assay
- Assay type: cell-based
- Measurement Parameters: Calu-3, 72 h

Here is how some compounds turned out for IC50.
> print(dat)
                                smiles.code   result
1  C=CC(=O)Nc1cc(Nc2nccc(-c3cn(C)c4cccnc34)n2)c(OC)cc1NCCN(C)C  > 10 µM
2  C=CC(=O)Nc1cc(Nc2nccc(-c3cn(C)c4cccnc34)n2)c(OC)cc1N(C)CCNC  > 10 µM
3  C=CC(=O)Nc1cc(Nc2nccc(-c3cn(C)c4ccccc34)n2)c(OC)cc1N(C)CCN(C)C  0.75 µM

Now examine the next entry.
Consider the compound "C=CC(=O)Nc1cc(Nc2nccc(-c3cn(C)c4cccnc34)n2)c(OC)cc1N(C)CCN(C)C" and give its measured IC50.
> 10 µM

###

- Tested on: PC-9
- Test Description: Antiproliferative activity against human PC9 cells harboring EGFR mutant after 72 hrs by MTS assay
- Assay type: functional, cell-based
- Measurement Parameters: PC-9, 72 h
Listed next: entries and their corresponding IC50.
Express your answer in nM, writing the number without its unit.

> print(dat)
                                smiles.code  experimental.system  endpoint.label  result.number
1  C=CC(=O)Nc1cc(Nc2nccc(-c3cn(C)c4ccccc34)n2)c(OC)cc1N(C)CCN(C)C                 PC-9            IC50            160
2  C=CC(=O)Nc1cc(Nc2nccc(-c3cn(C)c4cccnc34)n2)c(OC)cc1N(C)CCN(C)C                 PC-9            IC50            200
3  C=CC(=O)Nc1cc(Nc2nccc(-c3cn(C)c4cccnc34)n2)c(OC)cc1NCCN(C)C                 PC-9            IC50            740

What does the record list as IC50 for "C=CC(=O)Nc1cc(Nc2nccc(-c3cn(C)c4cccnc34)n2)c(OC)cc1N(C)CCNC" ?
330

###

- Test Description: Antiproliferative activity against human A431 cells harboring WT EGFR after 72 hrs by MTS assay
- Format: cell-based, A-431
- Measurement Parameters: human, A431 cells harboring WT EGFR
// reported GI50 at 72 h per item
Kindly answer with a numeric value in nM, unit omitted.

For orientation, consider the following solved cases.
> print(dat)
                                smiles.code  result.number
1  C=CC(=O)Nc1cc(Nc2nccc(-c3noc4ccccc34)n2)c(OC)cc1N1CCN(C)CC1            728
2  C=CC(=O)Nc1cc(Nc2nccc(-c3cn(C)c4cccnc34)n2)c(OC(F)F)cc1N1CCN(C)CC1           1440
3  C=CC(=O)Nc1cc(Nc2nccc(-c3cn(C)c4cccnc34)n2)c(OC(F)F)cc1N(C)CCN(C)C            296
4  C=CC(=O)Nc1cc(Nc2nccc(-c3noc4ccccc34)n2)c(OC(F)F)cc1N1CCC[C@H]1CN(C)C           1000
5  C=CC(=O)Nc1cc(Nc2nccc(-c3cn(C)c4cccnc34)n2)c(OC(F)F)cc1N1CCC[C@H]1CN(C)C            724

Value lookup for GI50 at 72 h; key = "C=CC(=O)Nc1cc(Nc2nccc(-c3nn(C)c4ccsc34)n2)c(OC(F)F)cc1N(C)CCN(C)C"
85.8

Bench note: what GI50 at 72 h did "C=CC(=O)Nc1cc(Nc2nccc(-c3nn(C)c4ccsc34)n2)c(OC(F)F)cc1N1CCN(C)CC1" show?
1130

Field request: GI50 at 72 h | item: "C=CC(=O)Nc1cc(Nc2nccc(-c3cn(C)c4cccnc34)n2)c(OC)cc1N1CCC[C@H]1CN(C)C"
2100

###

- Tested on: NCI-H1975
- Test Description: Antiproliferative activity against human NCI-H1975 cells harboring EGFR T790M/L858R double mutant after 72 hrs by MTS assay
- Assay type: functional, cell-based
- Measurement Parameters: Homo sapiens, NCI-H1975, 72 h
Endpoint Label: GI50 (nM)

> print(dat)
                                smiles.code  result.number
1  C=CC(=O)Nc1cc(Nc2nccc(-c3noc4ccccc34)n2)c(OC)cc1N1CCN(C)CC1            168
2  C=CC(=O)Nc1cc(Nc2nccc(-c3noc4ccccc34)n2)c(OC(F)F)cc1N(C)CCN(C)C              4
3  C=CC(=O)Nc1cc(Nc2nccc(-c3noc4ccccc34)n2)c(OC)cc1N1CCC[C@H]1CN(C)C            844
4  C=CC(=O)Nc1cc(Nc2nccc(-c3cn(C)c4cccnc34)n2)c(OC(F)F)cc1N1CCN(C)CC1            166
5  C=CC(=O)Nc1cc(Nc2nccc(-c3cn(C)c4cccnc34)n2)c(OC)cc1N1CCC[C@H]1CN(C)C           2880

I: C=CC(=O)Nc1cc(Nc2nccc(-c3cn(C)c4cccnc34)n2)c(OC)cc1N1CCN(C)CC1
II: C=CC(=O)Nc1cc(Nc2nccc(-c3nn(C)c4ccsc34)n2)c(OC(F)F)cc1N(C)CCN(C)C
For the pair I and II , which member has the lower GI50 number? Mark your selection by writing its label.
II
(II: 6.5 nM, I: 175 nM)

###

Here, each record is paired with measured pIC50 data.
- Experimental System: Epidermal growth factor receptor (Homo sapiens, UniProt P00533, L858R)
- Sequence (P00533 25-1210 L858R limits assumed): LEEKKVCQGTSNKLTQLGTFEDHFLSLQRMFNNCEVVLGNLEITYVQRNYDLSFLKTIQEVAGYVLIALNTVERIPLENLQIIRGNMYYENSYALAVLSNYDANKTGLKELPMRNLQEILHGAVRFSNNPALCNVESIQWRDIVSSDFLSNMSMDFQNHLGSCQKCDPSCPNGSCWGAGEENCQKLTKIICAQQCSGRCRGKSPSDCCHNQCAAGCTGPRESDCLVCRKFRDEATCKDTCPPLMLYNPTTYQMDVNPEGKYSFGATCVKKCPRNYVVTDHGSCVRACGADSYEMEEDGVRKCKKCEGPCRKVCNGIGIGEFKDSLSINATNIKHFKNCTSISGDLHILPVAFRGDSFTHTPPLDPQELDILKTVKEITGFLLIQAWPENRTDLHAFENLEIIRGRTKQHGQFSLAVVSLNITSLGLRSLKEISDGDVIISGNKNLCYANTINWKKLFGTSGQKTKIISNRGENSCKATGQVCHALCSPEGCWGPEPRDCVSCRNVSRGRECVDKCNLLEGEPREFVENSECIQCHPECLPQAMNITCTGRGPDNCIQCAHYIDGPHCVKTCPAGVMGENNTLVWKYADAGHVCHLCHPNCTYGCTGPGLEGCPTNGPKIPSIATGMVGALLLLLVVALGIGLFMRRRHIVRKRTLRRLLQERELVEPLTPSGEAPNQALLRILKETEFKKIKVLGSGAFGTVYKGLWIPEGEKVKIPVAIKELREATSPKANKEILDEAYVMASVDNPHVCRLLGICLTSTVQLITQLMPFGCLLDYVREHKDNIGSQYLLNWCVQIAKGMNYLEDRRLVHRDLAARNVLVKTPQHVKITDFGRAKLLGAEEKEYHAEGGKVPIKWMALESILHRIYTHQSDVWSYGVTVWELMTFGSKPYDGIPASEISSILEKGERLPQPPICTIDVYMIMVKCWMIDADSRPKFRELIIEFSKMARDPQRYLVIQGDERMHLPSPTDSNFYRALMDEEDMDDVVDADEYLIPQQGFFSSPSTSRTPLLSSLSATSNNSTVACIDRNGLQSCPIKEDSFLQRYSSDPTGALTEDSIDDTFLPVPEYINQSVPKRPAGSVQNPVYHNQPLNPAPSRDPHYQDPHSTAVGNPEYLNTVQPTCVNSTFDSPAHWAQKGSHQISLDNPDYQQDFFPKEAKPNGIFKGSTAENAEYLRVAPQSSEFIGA
- Test Description: Inhibition of recombinant human GST-tagged EGFR L858R mutant expressed in baculovirus expression system by fluorescence assay
Expect pIC50 as a plain number equal to -log10 of the molar concentration.

Recorded pIC50 for "C=CC(=O)Nc1cc(Nc2nccc(-c3cn(C)c4cccnc34)n2)c(OC)cc1N(C)CCN(C)C" , please?
5.26

pIC50 lookup needed for "C=CC(=O)Nc1cc(Nc2nccc(-c3cn(C)c4cccnc34)n2)c(OC)cc1NCCN(C)C" , thanks.
4.92

Need pIC50, item "C=CC(=O)Nc1cc(Nc2nccc(-c3cn(C)c4cccnc34)n2)c(OC)cc1N(C)CCNC"
4.92
